B1: Cytoplasmic polyadenylation element-binding protein 2, residues 513 to 575; numbered along this chain, Q7Z5Q1 (parent)
chain: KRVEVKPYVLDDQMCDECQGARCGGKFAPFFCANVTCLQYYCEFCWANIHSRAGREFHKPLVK

- Variants of: B1
- PROTOCOL NOTES: abundance fitness (aPCA) (normalised: wild type 0, dead -1); higher = more abundant; growth selection in yeast, the domain comes from the species named
- RUN CONDITIONS: Homo sapiens
abundance fitness reference

The examples below pair each entry with its known result.
| VARIANT IDENTIFIER | abundance fitness |
| --- | --- |
| F57V | 0.065 |
| V9L | -0.043 |
| C37Y | -0.806 |
| C23P | -0.229 |
| Y40P | -0.654 |
| K63V | -0.112 |
| K6Q | -0.083 |
| Y40F | -0.087 |
| A33L | -0.311 |
| G25A | -0.147 |

Req: Need abundance fitness of D16T , thanks.
Resp: 0.115

Req: Can you handle T36V next?
Resp: -0.106

Req: Can you handle A33G next?
Resp: -0.047

Req: Can you handle L61Q next?
Resp: 0.116

Req: Can you handle E56K next?
Resp: 0.035
